Compiled notes: published Kd values involving Fibroblast growth factor receptor 4 (Homo sapiens).
The threshold is 200 nM. Values of Kd beneath it are tagged Condition met; values meeting or exceeding it are tagged Condition not met.

{"Compound": "N=S1(=O)CCN(c2ccc(Nc3ncc(Cl)c(-c4c[nH]c5ccccc45)n3)cc2)CC1", "Target Of Assay": "Fibroblast growth factor receptor 4 (Homo sapiens)", "Label": "Condition met"}
{"Compound": "C=CC(=O)Nc1ccc2c(ccn2-c2nc(Nc3ccc(S(C)(=N)=O)cc3)ncc2C)c1 (stereo not drawn)", "Target Of Assay": "Fibroblast growth factor receptor 4 (Homo sapiens)", "Label": "Condition not met"}
{"Compound": "COc1cc(N2CCS(=N)(=O)CC2)ccc1Nc1ncc(Cl)c(-n2ccc3ccccc32)n1", "Target Of Assay": "Fibroblast growth factor receptor 4 (Homo sapiens)", "Label": "Condition not met"}
{"Compound": "COc1cc(N=S(C)(C)=O)ccc1Nc1ncc(Cl)c(-c2c[nH]c3ccccc23)n1", "Target Of Assay": "Fibroblast growth factor receptor 4 (Homo sapiens)", "Label": "Condition met"}
{"Compound": "C=CC(=O)Nc1ccc2c(ccn2-c2nc(Nc3ccc(N=S4(=O)CCN(C)CC4)cc3)ncc2Cl)c1", "Target Of Assay": "Fibroblast growth factor receptor 4 (Homo sapiens)", "Label": "Condition met"}
{"Compound": "CCC(=O)Nc1cccc2c1ccn2-c1nc(Nc2ccc(N3CCS(=N)(=O)CC3)cc2)ncc1Cl", "Target Of Assay": "Fibroblast growth factor receptor 4 (Homo sapiens)", "Label": "Condition not met"}
{"Compound": "COc1cc(S(C)(=N)=O)ccc1Nc1nccc(-n2ccc3ccccc32)n1 (stereo not drawn)", "Target Of Assay": "Fibroblast growth factor receptor 4 (Homo sapiens)", "Label": "Condition not met"}
{"Compound": "COc1cc(OC)c(F)c(N2CCN(C(C)C)Cc3c2ccc2ncc(-c4cn[nH]c4)nc32)c1", "Target Of Assay": "Fibroblast growth factor receptor 4 (Homo sapiens)", "Label": "Condition met"}
{"Compound": "COc1cc(N2CCS(=N)(=O)CC2)ccc1Nc1nccc(-n2ccc3ccccc32)n1", "Target Of Assay": "Fibroblast growth factor receptor 4 (Homo sapiens)", "Label": "Condition not met"}
{"Compound": "CS(C)(=O)=Nc1ccc(Nc2cc(-c3c[nH]c4ccccc34)ncn2)cc1", "Target Of Assay": "Fibroblast growth factor receptor 4 (Homo sapiens)", "Label": "Condition met"}
{"Compound": "COc1cc(Nc2ncc(C)c(-c3c[nH]c4ccccc34)n2)ccc1N=S(C)(C)=O", "Target Of Assay": "Fibroblast growth factor receptor 4 (Homo sapiens)", "Label": "Condition met"}
{"Compound": "N=S1(=O)CCN(c2ccc(Nc3ncc(Cl)c(-n4ccc5c(N)cccc54)n3)cc2)CC1", "Target Of Assay": "Fibroblast growth factor receptor 4 (Homo sapiens)", "Label": "Condition not met"}
{"Compound": "CCn1cc(-c2cnc3ccc(N4CCN(C(C)C)Cc5c(OC)cc(OC)cc54)cc3n2)cn1", "Target Of Assay": "Fibroblast growth factor receptor 4 (Homo sapiens)", "Label": "Condition not met"}
{"Compound": "C=CC(=O)Nc1ccc2c(c1)c(C)cn2-c1nc(Nc2ccc(N=S(C)(C)=O)cc2OCC)ncc1Cl", "Target Of Assay": "Fibroblast growth factor receptor 4 (Homo sapiens)", "Label": "Condition not met"}
{"Compound": "COc1cc(Nc2ncc(C)c(-c3c[nH]c4c(OC)cccc34)n2)ccc1N=S(C)(C)=O", "Target Of Assay": "Fibroblast growth factor receptor 4 (Homo sapiens)", "Label": "Condition met"}
{"Compound": "C=CC(=O)Nc1cccc2c(-c3nc(Nc4ccc(S(C)(=N)=O)cc4)ncc3Cl)c[nH]c12 (stereo not drawn)", "Target Of Assay": "Fibroblast growth factor receptor 4 (Homo sapiens)", "Label": "Condition met"}
{"Compound": "Cc1cnc(Nc2ccc(S(C)(=N)=O)cc2)nc1-c1c(C)[nH]c2ccccc12 (stereo not drawn)", "Target Of Assay": "Fibroblast growth factor receptor 4 (Homo sapiens)", "Label": "Condition not met"}
{"Compound": "COc1c(N=S(C)(C)=O)cccc1Nc1ncc(Cl)c(-c2c[nH]c3ccccc23)n1", "Target Of Assay": "Fibroblast growth factor receptor 4 (Homo sapiens)", "Label": "Condition not met"}

* * *

A compilation of Kd values for UniProt:P22455 from the published literature.

{"Molecule": "CS(C)(=O)=Nc1ccc(Nc2nccc(-n3ccc4ccccc43)n2)cc1", "Value Operator": "=", "Kd [nM]": 57}
{"Molecule": "COc1cc(Nc2ncc(C)c(-c3c[nH]c4c(C)cccc34)n2)ccc1N=S(C)(C)=O", "Value Operator": "=", "Kd [nM]": 62}
{"Molecule": "CN=S(C)(=O)c1ccc(Nc2ncc(Cl)c(-c3c[nH]c4ccccc34)n2)c(OC)c1 (stereo not shown)", "Value Operator": "=", "Kd [nM]": 120}
{"Molecule": "C=CC(=O)Nc1ccc2c(cnn2-c2nc(Nc3ccc(N=S(C)(C)=O)cc3)ncc2Cl)c1", "Value Operator": "=", "Kd [nM]": 240}
{"Molecule": "CS(C)(=O)=Nc1ccc(Nc2ncc(Cl)c(-n3ccc4c(NC(=O)C5CC5)cccc43)n2)cc1", "Value Operator": "=", "Kd [nM]": 4600}
{"Molecule": "CCC(=O)Nc1ccc2c(ccn2-c2nc(Nc3ccc(N=S(C)(C)=O)cc3)ncc2Cl)c1", "Value Operator": "=", "Kd [nM]": 2400}
{"Molecule": "COc1cc(OC)c(F)c(N2CCN(C(C)C)Cc3c2ccc2ncc(-c4cnn(C)c4)cc32)c1F", "Value Operator": "=", "Kd [nM]": 38}
{"Molecule": "COc1cc(S(C)(=N)=O)ccc1Nc1ncc(C)c(-n2ccc3ccccc32)n1 (stereo not shown)", "Value Operator": "=", "Kd [nM]": 4200}
{"Molecule": "C=CC(=O)Nc1ccc2c(ccn2-c2nc(Nc3ccc(N4CCS(=N)(=O)CC4)cc3)ncc2Cl)c1", "Value Operator": "=", "Kd [nM]": 240}
{"Molecule": "C=CC(=O)Nc1ccc2c(c1)c(C)cn2-c1nc(Nc2ccc(N=S(C)(C)=O)c(F)c2)ncc1Cl", "Value Operator": "=", "Kd [nM]": 42}
{"Molecule": "CS(C)(=O)=Nc1ccc(Nc2ncc(F)c(-c3c[nH]c4ccccc34)n2)cc1", "Value Operator": "=", "Kd [nM]": 130}
{"Molecule": "CS(C)(=O)=Nc1ccc(Nc2nccc(-c3c[nH]c4ccccc34)n2)cc1", "Value Operator": "=", "Kd [nM]": 57}
{"Molecule": "Cc1cnc(Nc2ccc(N=S3(=O)CCN(C)CC3)cc2)nc1-c1c[nH]c2ccccc12", "Value Operator": "=", "Kd [nM]": 120}
{"Molecule": "COc1cc(S(C)(=N)=O)ccc1Nc1ncc(Cl)c(-c2c[nH]c3ccccc23)n1 (stereo not shown)", "Value Operator": "=", "Kd [nM]": 57}
{"Molecule": "CS(C)(=O)=Nc1ccc(Nc2ncc(Cl)c(-n3ccc4c(N)cccc43)n2)cc1", "Value Operator": "=", "Kd [nM]": 1000}
{"Molecule": "COc1cc(N=S2(=O)CCN(C(C)C)CC2)ccc1Nc1ncc(Cl)c(-c2c[nH]c3ccccc23)n1", "Value Operator": "=", "Kd [nM]": 100}
{"Molecule": "CN1CCS(=O)(=Nc2ccc(Nc3nccc(-n4ccc5ccccc54)n3)cc2)CC1", "Value Operator": "=", "Kd [nM]": 9500}
{"Molecule": "CCn1cc(-c2cnc3ccc(N4CCN(C)Cc5c(OC)cc(OC)cc54)cc3n2)cn1", "Value Operator": ">", "Kd [nM]": 3000}
{"Molecule": "CCC(=O)Nc1cccc2c1ccn2-c1nc(Nc2ccc(N=S(C)(C)=O)cc2)ncc1Cl", "Value Operator": "=", "Kd [nM]": 2600}
{"Molecule": "C=CC(=O)Nc1ccc2c(-c3nc(Nc4ccc(S(C)(=N)=O)cc4)ncc3Cl)c[nH]c2c1 (stereo not shown)", "Value Operator": "=", "Kd [nM]": 510}
{"Molecule": "Cc1ccc(C(=O)Nc2ccc(CN3CCN(C)CC3)c(C(F)(F)F)c2)cc1C#Cc1cnc2c(Nc3cnn(CCCN(C)C)c3)cccn12", "Value Operator": "=", "Kd [nM]": 82}
{"Molecule": "COc1cc(OC)c(Cl)c(N2CCN(C(C)C)Cc3c2ccc2ncc(-c4cnn(C)c4)nc32)c1Cl", "Value Operator": "=", "Kd [nM]": 77.6}
{"Molecule": "CN1CCS(=O)(=Nc2ccc(Nc3ncc(Cl)c(-c4c[nH]c5ccccc45)n3)cc2)CC1", "Value Operator": "=", "Kd [nM]": 110}
{"Molecule": "Cc1cc(Nc2ncc(C)c(-c3c[nH]c4ccccc34)n2)ccc1N=S(C)(C)=O", "Value Operator": "=", "Kd [nM]": 87}
{"Molecule": "Cc1ccc(C(=O)Nc2ccc(CN3CCN(C)CC3)c(C(F)(F)F)c2)cc1C#Cc1cnc2c(Nc3ccn(C)n3)cccn12", "Value Operator": "=", "Kd [nM]": 200}
{"Molecule": "COc1cc(OC)c(F)c(N2CCN(C(C)C)Cc3c2ccc2ncc(-c4cnn(C)c4)cc32)c1", "Value Operator": "=", "Kd [nM]": 8.91}
{"Molecule": "N=S1(=O)CCN(c2ccc(Nc3ncc(F)c(-c4c[nH]c5ccccc45)n3)cc2)CC1", "Value Operator": "=", "Kd [nM]": 120}
{"Molecule": "CC(C)COc1cc(N=S(C)(C)=O)ccc1Nc1ncc(Cl)c(-c2c[nH]c3ccccc23)n1", "Value Operator": "=", "Kd [nM]": 210}
{"Molecule": "C=CC(=O)Nc1ccc2c(ccn2-c2nc(Nc3ccc(N=S(C)(C)=O)cc3)ncc2Cl)c1", "Value Operator": "=", "Kd [nM]": 680}
{"Molecule": "C=CC(=O)Nc1ccc2c(-c3nc(Nc4ccc(S(=N)(=O)C5CC5)cc4)ncc3Cl)c[nH]c2c1 (stereo not shown)", "Value Operator": "=", "Kd [nM]": 360}
{"Molecule": "Cc1ccc(C(=O)Nc2ccc(CN3CCN(C)CC3)c(C(F)(F)F)c2)cc1C#Cc1cnc2c(Nc3cnn(C(C)C)c3)cccn12", "Value Operator": "=", "Kd [nM]": 73}
